Just for reference, paper PMC6001238 is where these values come from.

System: MRSA KS1
assayNotes: MIC, broth microdilution, MRSA KS1
Type: cell-based, Staphylococcus aureus
experimentalContext: MRSA KS1; ratio of MIC of vancomycin and MIC of analogue
measurementName: MIC-fold improvement vs. vancomycin

>>> observedmeasurement("CNC(CC(C)C)C(=O)NC1C(=O)NC(CC(N)=O)C(=O)NC2C(=O)NC3C(=O)NC(C(=O)NC(C(=O)NCCCNC(=O)c4ccc5cc(NS(=O)(=O)c6ccccc6)ccc5c4)c4cc(O)cc(O)c4-c4cc3ccc4O)C(O)c3ccc(c(Cl)c3)Oc3cc2cc(c3OC2OC(CO)C(O)C(O)C2OC2CC(C)(N)C(O)C(C)O2)Oc2ccc(cc2Cl)C1O (stereo not drawn)")
2
>>> observedmeasurement("CNC(CC(C)C)C(=O)NC1C(=O)NC(CC(N)=O)C(=O)NC2C(=O)NC3C(=O)NC(C(=O)NC(C(=O)NCCCNC(=O)c4cc5ccccc5o4)c4cc(O)cc(O)c4-c4cc3ccc4O)C(O)c3ccc(c(Cl)c3)Oc3cc2cc(c3OC2OC(CO)C(O)C(O)C2OC2CC(C)(N)C(O)C(C)O2)Oc2ccc(cc2Cl)C1O (stereo not drawn)")
2
>>> observedmeasurement("CNC(CC(C)C)C(=O)NC1C(=O)NC(CC(N)=O)C(=O)NC2C(=O)NC3C(=O)NC(C(=O)NC(C(=O)NCC(=O)Nc4ccc(C#CC5CCCC5)cc4)c4cc(O)cc(O)c4-c4cc3ccc4O)C(O)c3ccc(c(Cl)c3)Oc3cc2cc(c3OC2OC(CO)C(O)C(O)C2OC2CC(C)(N)C(O)C(C)O2)Oc2ccc(cc2Cl)C1O (stereo not drawn)")
1
